- Tested on: HT29
- procedureSummary: Tumor cell viability
- Type: cell-based
- particulars: Colon HT29, B-RAF V600E

# smilesStr, systemUnderTest, EC50
measured = [
    ("CSc1nc(N)cc(Oc2ccc(-c3nnc(Nc4cccc(C(F)(F)F)c4)[nH]3)cc2)n1", "HT29", "0.62 µM"),
]

====

- systemUnderTest: PDGFRB (Homo sapiens (Human))
- Sequence (P09619 33-1106): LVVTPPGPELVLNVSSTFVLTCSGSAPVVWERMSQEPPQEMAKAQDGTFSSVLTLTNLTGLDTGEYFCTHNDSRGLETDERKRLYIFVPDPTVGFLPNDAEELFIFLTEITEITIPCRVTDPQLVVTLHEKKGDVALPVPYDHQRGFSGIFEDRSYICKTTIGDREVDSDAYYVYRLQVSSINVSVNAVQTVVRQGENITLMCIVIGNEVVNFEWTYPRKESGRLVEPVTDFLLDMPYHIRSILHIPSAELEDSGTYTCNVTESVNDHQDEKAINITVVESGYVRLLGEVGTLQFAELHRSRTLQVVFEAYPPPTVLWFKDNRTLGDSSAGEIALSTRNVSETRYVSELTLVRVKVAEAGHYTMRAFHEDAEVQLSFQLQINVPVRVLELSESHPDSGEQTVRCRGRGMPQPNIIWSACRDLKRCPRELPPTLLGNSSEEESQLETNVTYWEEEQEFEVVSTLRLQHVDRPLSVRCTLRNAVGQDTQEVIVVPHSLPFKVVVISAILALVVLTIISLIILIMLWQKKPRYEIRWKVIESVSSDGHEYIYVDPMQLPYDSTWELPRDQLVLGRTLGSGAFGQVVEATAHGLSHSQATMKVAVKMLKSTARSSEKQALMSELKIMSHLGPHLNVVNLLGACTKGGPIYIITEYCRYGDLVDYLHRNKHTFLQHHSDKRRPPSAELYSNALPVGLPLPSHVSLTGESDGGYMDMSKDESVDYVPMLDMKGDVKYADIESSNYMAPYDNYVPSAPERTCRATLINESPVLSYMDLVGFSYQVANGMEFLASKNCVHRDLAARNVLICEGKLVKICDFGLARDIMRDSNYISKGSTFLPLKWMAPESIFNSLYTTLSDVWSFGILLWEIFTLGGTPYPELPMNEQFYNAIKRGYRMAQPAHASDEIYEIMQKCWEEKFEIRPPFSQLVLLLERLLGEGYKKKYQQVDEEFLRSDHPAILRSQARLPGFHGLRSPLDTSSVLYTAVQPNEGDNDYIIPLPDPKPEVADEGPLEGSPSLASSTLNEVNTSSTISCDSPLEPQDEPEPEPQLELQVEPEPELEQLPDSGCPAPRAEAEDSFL

# smilesStr, Kd / nM
records = [
    ("Nc1cc(Oc2ccc(-c3nnc(Nc4cccc(C(F)(F)F)c4)[nH]3)cc2)ncn1", 40),
]

====

- System: CT26
- procedureSummary: Tumor cell viability
- Assay type: cell-based
- particulars: Colon Carcinoma CT26
resultType: EC50 (nM)

# smilesStr, measurement
data = [
    ("CSc1nc(N)cc(Oc2ccc(-c3nnc(Nc4cccc(C(F)(F)F)c4)[nH]3)cc2)n1", 710),
]
